B1: TPR 5TU (parent)
chain: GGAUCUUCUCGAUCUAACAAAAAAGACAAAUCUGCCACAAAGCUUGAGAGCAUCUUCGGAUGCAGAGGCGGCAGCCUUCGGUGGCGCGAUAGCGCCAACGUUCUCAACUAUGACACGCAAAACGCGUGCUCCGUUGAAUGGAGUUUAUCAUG

# Variants of: B1
# Assay Overview: polymerase ribozyme fitness, log enrichment relative to wild type (log ratio); higher = more active; in vitro selection for triplet polymerase activity
Fewer inactive variants are shown than the library holds.
Measurement Name: polymerase ribozyme fitness (log ratio)

Some variants with recorded polymerase ribozyme fitness (log ratio):
{"Mutations": "G48A A49C U53A G100A", "polymerase ribozyme fitness (log ratio)": "≤ -4.2"}
{"Mutations": "U9A C35U U55A A91C", "polymerase ribozyme fitness (log ratio)": "≤ -4.2"}
{"Mutations": "A23G G25C A40C G58A U61A G80C G88C", "polymerase ribozyme fitness (log ratio)": "≤ -4.2"}
{"Mutations": "G25U U61G C99G A106G A107U A150G", "polymerase ribozyme fitness (log ratio)": "≤ -4.2"}

Give polymerase ribozyme fitness (log ratio) for each of the items listed below.
1. U9A A17U G58A U151A
2. C5U A49C G81U C93G
3. A16U A21G A30U G48C
4. C27A A106C A113U C125A

Reply text:
1: ≤ -4.2; 2: ≤ -4.2; 3: ≤ -4.2; 4: ≤ -4.2

Please go through the list and note polymerase ribozyme fitness (log ratio) for each variant.
1. A17U U31C G50A A64U C69A C99U
2. C10U C14U A19C U55A G59U A97U C105A A115U G141U U148C
3. U15G A21C A49C C54U G86A
4. A12G U55A G71A G80C
5. C75A C95U A98U C103U U145G U146G
6. C10G C51U G92A G124C
7. C5G G34A C38U C43U G83A
8. U61G G67U U90A A120G

Reply text:
["≤ -4.2", "≤ -4.2", "≤ -4.2", "≤ -4.2", "≤ -4.2", "≤ -4.2", "≤ -4.2", "≤ -4.2"]

Would you mind listing polymerase ribozyme fitness (log ratio) for each of the following variants?
1. A39G C87U A147C C149A
2. A3G C87U

Reply text:
≤ -4.2
-0.743

Please supply polymerase ribozyme fitness (log ratio) for each of the following items, keeping them in order.
1. U101G G124A
2. U13G C85U
3. A52U C69U G83C C116G
4. A89C C99U C114U

Reply text:
1: 0.852; 2: -1.63; 3: -4.13; 4: -2.63

Items follow; give polymerase ribozyme fitness (log ratio) for each.
1. A3G A29G A39G G86U C99G
2. A28C C43U C76G A110G A138U
3. C10G A20U C35A C85G A142C

Reply text:
1. ≤ -4.2
2. ≤ -4.2
3. ≤ -4.2

Quick batch: polymerase ribozyme fitness (log ratio) for everything below.
1. C14G U56G C57U C63U C72U U151G
2. A20C C85A G126C U144A
3. U7G A30G C32A A39U A60G C96U G126U G140U

Reply text:
["≤ -4.2", -0.594, -3.86]
